- Test system: A2780R cisplatin-resistant ovarian carcinoma cells
- PROCEDURE_TEXT: In vitro cytotoxicity testing (MTT assay), A2780R
- Format: cell-based, human
- EXPERIMENTAL_CONTEXT: 24 h drug exposure, no recovery, MTT; read-out: IC50±SD, A2780R
- Protocol: All cell lines were grown as adherent monolayers at 37°C and 5% CO2 in a humidified atmosphere. The MTT assay was used to determine the cell viability; MTT = 3-(4,5-dimethylthiazol-2-yl)-2,5-diphenyltetrazolium bromide. A concentration of the formed dye was evaluated spectrophotometrically at 540 nm (TECAN, Schoeller Instruments LLC). The data were expressed as the percentage of viability, where 100% and 0% represents the treatments with negative and positive controls, respectively. […]
QUANTITY_KIND: IC50

* Brc1c[nH]c2ncccc12.Brc1c[nH]c2ncccc12.[I][Pt][I] [Complex 3, cis-[Pt(3Braza)2I2]] | 3.2 µM
* Cc1cc2c(Cl)cc[n+]([Pt-2]([I])([I])[n+]3ccc(Cl)c4cc(C)[nH]c43)c2[nH]1 [Complex 8, cis-[PtI2(2Me4Claza)2]] | 1 µM

Exercise: GET /values?readout=IC50&item= Ic1c[nH]c2c1ccc[n+]2[Pt-2]([I])([I])[n+]1cccc2c(I)c[nH]c21 [Complex 4, cis-[PtI2(3Iaza)2]]
Solution: 2.6 µM

====

Form field: Areas of necrosis in tumour tissues (one value per entry).
- Tested on: spleen, renal tissue and tumour tissues of L1210 leukaemia-bearing mice
- PROCEDURE_TEXT: Histological observations (light microscopy, semi-quantitative)
- EXPERIMENTAL_CONTEXT: relative scale 0 to 4

Please review the entries below; each comes with its answer.
* Cc1cc2c(Cl)cc[n+]([Pt-2]([I])([I])[n+]3ccc(Cl)c4cc(C)[nH]c43)c2[nH]1 [Complex 8, cis-[PtI2(2Me4Claza)2]] | 3 (3 = up to 75%)
* Clc1ccnc2[nH]ccc12.Clc1ccnc2[nH]ccc12.[I][Pt][I] [Complex 5, cis-[Pt(4Claza)2I2]] | 2 (2 = up to 50%)

Exercise: Item: Brc1cc[n+]([Pt-2]([I])([I])[n+]2ccc(Br)c3cc[nH]c32)c2[nH]ccc12 [Complex 6, cis-[Pt(4Braza)2I2]] Test system: spleen, renal tissue and tumour tissues of L1210 leukaemia-bearing mice Read-out: Areas of necrosis in tumour tissues Value: ?
Solution: 1–2

Exercise: Item: N.N.[Cl][Pt][Cl] [Cisplatin, cisplatin, reference compound] Test system: spleen, renal tissue and tumour tissues of L1210 leukaemia-bearing mice Read-out: Areas of necrosis in tumour tissues Value: ?
Solution: 3 (3 = up to 75%)

====

- System: A2780 ovarian carcinoma cells
- PROCEDURE_TEXT: In vitro cytotoxicity testing (MTT assay), A2780
- Type: cell-based, human
- EXPERIMENTAL_CONTEXT: 24 h drug exposure, no recovery, MTT; read-out: IC50±SD, A2780
Form field: pIC50 (one value per entry).
Units for pIC50: none; it is -log10 of a concentration expressed in mol/L.

Please review the entries below; each comes with its answer.
- [I][Pt][I].c1cnc2[nH]ccc2c1.c1cnc2[nH]ccc2c1 [Complex 1, cis-[Pt(aza)2I2]]: 5.46
- Clc1c[nH]c2ncccc12.Clc1c[nH]c2ncccc12.[I][Pt][I] [Complex 2, cis-[Pt(3Claza)2I2]]: 5.43
- Clc1ccnc2[nH]ccc12.Clc1ccnc2[nH]ccc12.[I][Pt][I] [Complex 5, cis-[Pt(4Claza)2I2]]: 5.51
- Brc1cnc2[nH]ccc2c1.Brc1cnc2[nH]ccc2c1.[I-].[I-].[Pt+2] [Complex 7, cis-[Pt(5Braza)2I2]]: 5.47

Could you now look at the following compound, please?
Exercise: GET /values?readout=pIC50&item= Brc1cc[n+]([Pt-2]([I])([I])[n+]2ccc(Br)c3cc[nH]c32)c2[nH]ccc12 [Complex 6, cis-[Pt(4Braza)2I2]]
Solution: 5.49
